Below, each of the compounds is paired with its reported Na value.
Species on record: Rattus norvegicus
assay.summary: Open TG-GATES - Regimen: Daily Repeat
Format: toxicity, organism-based, Sprague-Dawley
Parameters: regimen Daily Repeat, gender Male, age 6 weeks
experimental.context: in vivo, po, 100 mg/kg, […], tissue Plasma, route gavage, dose level Low, time 7 day
State the answer as a number, implicitly in meq/L.

compound: O=C(N[C@H](CO)[C@H](O)c1ccc([N+](=O)[O-])cc1)C(Cl)Cl
measured.result: 144.2
--
compound: CCN1CCCC1CNC(=O)c1cc(S(N)(=O)=O)ccc1OC (centres undefined) [SULPIRIDE]
measured.result: 141.8
--
compound: CC(C)(S)[C@@H](N)C(=O)O
measured.result: 142.2

Now for another entry.
Let me know recorded Na for O=C(O)c1cccnc1 , thanks.
138.8

----------
Species on record: Rattus norvegicus
assay.summary: Open TG-GATES - Regimen: Daily Repeat
Type: toxicity, organism-based, Sprague-Dawley
Design: regimen Daily Repeat, gender Male, age 6 weeks
experimental.context: in vivo, po, 0 mg/kg, […], tissue Plasma, route gavage, dose level Control, time 14 day
// reported AST for each item listed
Only the number, expressed in IU/L, is required.

The following compounds have reported results that may help.
compound: Nc1nc(N)c2nc(-c3ccccc3)c(N)nc2n1
AST [IU/L]: 60

compound: CN1C(=O)OC(C)(C)C1=O [TRIMETHADIONE]
AST [IU/L]: 73.8

compound: CC(C)(S)[C@@H](N)C(=O)O [PENICILLAMINE]
AST [IU/L]: 68.2

compound: CC(=O)Oc1cc(C(C)C)c(OCCN(C)C)cc1C [MOXISYLYTE]
AST [IU/L]: 71.4

compound: Oc1ncnc2[nH]ncc12 [ALLOPURINOL]
AST [IU/L]: 62.8

Tell me AST reported for CCc1oc2ccccc2c1C(=O)c1cc(I)c(O)c(I)c1 [BENZIODARONE]
63.2

Supply reported AST belonging to this compound: C[C@](N)(Cc1ccc(O)c(O)c1)C(=O)O [METHYLDOPA]
65.4

Fill in AST for record C#C[C@]1(O)CC[C@H]2[C@@H]3CCc4cc(O)ccc4[C@H]3CC[C@@]21C [ETHINYL ESTRADIOL]
66.6

Give the value of AST reported for the following: CC(C)C(=O)Nc1ccc([N+](=O)[O-])c(C(F)(F)F)c1 [FLUTAMIDE]
61.8

Specify reported AST for the compound shown: C[C@]12CCC(=O)C=C1CC[C@@H]1[C@@H]2CC[C@@]2(C)[C@H]1CC[C@]2(C)O [METHYLTESTOSTERONE]
71.4

----------
Species: Rattus norvegicus
assay.summary: Open TG-GATES - Regimen: Single
Assay type: toxicity, organism-based, Sprague-Dawley
Set-up: regimen Single, gender Male, age 6 weeks
experimental.context: in vivo, po, 0 mg/kg, 9 h, tissue Blood, route gavage, dose level Control
Below, each of the compounds is paired with its reported WBC value.
Quick reminder: number only, in x10_2/uL, skip the unit.

Example cases with answers are listed next.
compound: CC(=O)Oc1cc(C(C)C)c(OCCN(C)C)cc1C [MOXISYLYTE]
unit.info: x10_2/uL
measured.result: 120.9
//
compound: C[C@]12CCC(=O)C=C1CC[C@@H]1[C@@H]2CC[C@@]2(C)[C@H]1CC[C@]2(C)O [METHYLTESTOSTERONE]
unit.info: x10_2/uL
measured.result: 59.4
//
compound: CN1C(=O)OC(C)(C)C1=O [TRIMETHADIONE]
unit.info: x10_2/uL
measured.result: 82.3
//
compound: CCN1CCCC1CNC(=O)c1cc(S(N)(=O)=O)ccc1OC (stereo unspecified) [SULPIRIDE]
unit.info: x10_2/uL
measured.result: 76.7
//
compound: CC(=N)S [THIOACETAMIDE]
unit.info: x10_2/uL
measured.result: 120.6
//
compound: CCC(C)(C)C(=O)O[C@H]1C[C@@H](C)C=C2C=C[C@H](C)[C@H](CC[C@@H]3C[C@@H](O)CC(=O)O3)[C@H]21 [SIMVASTATIN]
unit.info: x10_2/uL
measured.result: 96.4
//
compound: CCSCC[C@H](N)C(=O)O [ETHIONINE]
unit.info: x10_2/uL
measured.result: 90.6
//
compound: CC(C)(S)[C@@H](N)C(=O)O [PENICILLAMINE]
unit.info: x10_2/uL
measured.result: 92.7
//
compound: CC(C)C(=O)Nc1ccc([N+](=O)[O-])c(C(F)(F)F)c1 [FLUTAMIDE]
unit.info: x10_2/uL
measured.result: 92.7
//
compound: O=C(O)c1cccnc1 [NIACIN]
unit.info: x10_2/uL
measured.result: 95.1

Look up WBC of C[C@](N)(Cc1ccc(O)c(O)c1)C(=O)O [METHYLDOPA] and report it.
74.2

Fill in WBC for record Nc1nc(N)c2nc(-c3ccccc3)c(N)nc2n1
83.6

Please indicate WBC recorded for CCc1oc2ccccc2c1C(=O)c1cc(I)c(O)c(I)c1 [BENZIODARONE]
92

Consider the compound C#C[C@]1(O)CC[C@H]2[C@@H]3CCc4cc(O)ccc4[C@H]3CC[C@@]21C [ETHINYL ESTRADIOL] and give its recorded WBC.
73.4

Give WBC for Oc1ncnc2[nH]ncc12 [ALLOPURINOL]
81.8

// fetch WBC given entry O=C(N[C@H](CO)[C@H](O)c1ccc([N+](=O)[O-])cc1)C(Cl)Cl [CHLORAMPHENICOL]
69.8

----------
Organism: Rattus norvegicus
assay.summary: Open TG-GATES - Regimen: Daily Repeat
Type: toxicity, organism-based, Sprague-Dawley
Set-up: regimen Daily Repeat, gender Male, age 6 weeks
experimental.context: in vivo, po, 0 mg/kg, […], tissue Blood, route gavage, dose level Control, time 14 day
readout: MCHC (%)
Number in %, nothing else.

These solved cases illustrate the format of a correct answer.
molecule: Oc1ncnc2[nH]ncc12
measured.result: 33
//
molecule: CC(C)(S)[C@@H](N)C(=O)O
measured.result: 33.9

Write down MCHC measured for item C[C@]12CCC(=O)C=C1CC[C@@H]1[C@@H]2CC[C@@]2(C)[C@H]1CC[C@]2(C)O
34.6

For the molecule CCC(C)(C)C(=O)O[C@H]1C[C@@H](C)C=C2C=C[C@H](C)[C@H](CC[C@@H]3C[C@@H](O)CC(=O)O3)[C@H]21 , give its reported MCHC.
33.2

State, in one line, measured MCHC of CC(=N)S [THIOACETAMIDE]
33.1

Determine its reported MCHC: O=C(N[C@H](CO)[C@H](O)c1ccc([N+](=O)[O-])cc1)C(Cl)Cl
32.6

Using the record for CCc1oc2ccccc2c1C(=O)c1cc(I)c(O)c(I)c1 , state its measured MCHC.
34

Give a short answer stating reported MCHC for CC(C)C(=O)Nc1ccc([N+](=O)[O-])c(C(F)(F)F)c1 [FLUTAMIDE] .
34.1

Fill in reported MCHC for this entry: CC(=O)Oc1cc(C(C)C)c(OCCN(C)C)cc1C
36.6

Hello, please tell me recorded MCHC for this one: CN1C(=O)OC(C)(C)C1=O
33.9

For the molecule CCN1CCCC1CNC(=O)c1cc(S(N)(=O)=O)ccc1OC (stereo not given) [SULPIRIDE] , give its reported MCHC.
33.3

----------
Each item that follows carries a reported K.
Organism: Rattus norvegicus
assay.summary: Open TG-GATES - Regimen: Daily Repeat
Format: toxicity, organism-based, Sprague-Dawley
Set-up: regimen Daily Repeat, gender Male, age 6 weeks
experimental.context: in vivo, po, 100 mg/kg, […], tissue Plasma, route gavage, dose level Low, time 28 day
All answers are understood in meq/L, so give the number only.

Some solved entries appear below for comparison.
compound: O=C(O)c1cccnc1
K, meq/L: 4.2
--
compound: CC(C)(S)[C@@H](N)C(=O)O
K, meq/L: 3.9
--
compound: CCN1CCCC1CNC(=O)c1cc(S(N)(=O)=O)ccc1OC (centres undefined) [SULPIRIDE]
K, meq/L: 3.8

Give the reported value of K for this record: O=C(N[C@H](CO)[C@H](O)c1ccc([N+](=O)[O-])cc1)C(Cl)Cl
3.5

----------
Organism: Rattus norvegicus
assay.summary: Open TG-GATES - Regimen: Daily Repeat
Type: toxicity, organism-based, Sprague-Dawley
Parameters: regimen Daily Repeat, gender Male, age 6 weeks
experimental.context: in vivo, po, 0 mg/kg, […], tissue Plasma, route gavage, dose level Control, time 28 day
Label TRUE for high-side ALT (at or above 40 IU/L) and FALSE for low-side ALT (below it).

Worked examples, 5 molecules total:
molecule: CC(=O)Oc1cc(C(C)C)c(OCCN(C)C)cc1C
class.label: TRUE
//
molecule: C[C@](N)(Cc1ccc(O)c(O)c1)C(=O)O
class.label: TRUE
//
molecule: CCSCC[C@H](N)C(=O)O
class.label: FALSE
//
molecule: CCN1CCCC1CNC(=O)c1cc(S(N)(=O)=O)ccc1OC (stereo unspecified) [SULPIRIDE]
class.label: FALSE
//
molecule: Oc1ncnc2[nH]ncc12
class.label: FALSE

Now consider a different molecule.
Kindly determine if ALT recorded for CC(C)(S)[C@@H](N)C(=O)O is above or exactly 40 IU/L.
FALSE

Values compiled from ChEMBL document CHEMBL3885861.
